Just for reference, ChEMBL document CHEMBL5352381 is where these values come from.

# log10(Tmax) per entry
experiment: Tmax in CD-1 mouse at 10 mg/kg, po; assay type: ADME, organism-based; conditions: in vivo
Plainly stated, the numbers are log10 of Tmax given in h.

Example entries begin here.
Cc1ccc(-n2nc(C(=O)N3C[C@H](C)N(C(=O)c4nc(-c5ccc6c(c5)N(C5CCCC5)[C@H](C)C(=O)N6C)n(-c5ccc(C)cc5)n4)C[C@H]3C)nc2-c2ccc3c(c2)N(C2CCCC2)[C@H](C)C(=O)N3C)cc1 | 0.37
Cc1ccc(-n2nc(C(=O)N(C)CCN(C)C(=O)c3nc(-c4ccc5c(c4)N(C4CCCC4)[C@H](C)C(=O)N5C)n(-c4ccc(C)cc4)n3)nc2-c2ccc3c(c2)N(C2CCCC2)[C@H](C)C(=O)N3C)cc1 | -0.60
Cc1ccc(-n2nc(C(=O)N3CCN(C(=O)c4nc(-c5ccc6c(c5)N(C5CCCC5)[C@H](C)C(=O)N6C)n(-c5ccc(C)cc5)n4)[C@H](C)C3)nc2-c2ccc3c(c2)N(C2CCCC2)[C@H](C)C(=O)N3C)cc1 | 0.30
Cc1ccc(-n2nc(C(=O)N3CCN(C(=O)c4nc(-c5ccc6c(c5)N(C5CCCC5)[C@H](C)C(=O)N6C)n(-c5ccc(C)cc5)n4)CC3)nc2-c2ccc3c(c2)N(C2CCCC2)[C@H](C)C(=O)N3C)cc1 | 0.00
Cc1ccc(-n2nc(C(=O)N[C@@H]3CCCC[C@H]3NC(=O)c3nc(-c4ccc5c(c4)N(C4CCCC4)[C@H](C)C(=O)N5C)n(-c4ccc(C)cc4)n3)nc2-c2ccc3c(c2)N(C2CCCC2)[C@H](C)C(=O)N3C)cc1 | 0.43
Cc1ccc(-n2nc(C(=O)NCCCNC(=O)c3nc(-c4ccc5c(c4)N(C4CCCC4)[C@H](C)C(=O)N5C)n(-c4ccc(C)cc4)n3)nc2-c2ccc3c(c2)N(C2CCCC2)[C@H](C)C(=O)N3C)cc1 | -0.24
Cc1ccc(-n2nc(C(=O)N3CCCN(C(=O)c4nc(-c5ccc6c(c5)N(C5CCCC5)[C@H](C)C(=O)N6C)n(-c5ccc(C)cc5)n4)CC3)nc2-c2ccc3c(c2)N(C2CCCC2)[C@H](C)C(=O)N3C)cc1 | -0.30

Proceeding to the next compound to report its log10(Tmax).
Ask | Which log10(Tmax) value belongs to Cc1ccc(-n2nc(C(=O)NCCNC(=O)c3nc(-c4ccc5c(c4)N(C4CCCC4)[C@H](C)C(=O)N5C)n(-c4ccc(C)cc4)n3)nc2-c2ccc3c(c2)N(C2CCCC2)[C@H](C)C(=O)N3C)cc1 ?
Reply | 0.44

* * *

experiment: Cmax in CD-1 mouse at 10 mg/kg, po; format: ADME, organism-based; design: dose 10 mg/kg, route po; conditions: in vivo
# Cmax per entry
Express your answer in ng/mL, writing the number without its unit.

Cc1ccc(-n2nc(C(=O)NCCCNC(=O)c3nc(-c4ccc5c(c4)N(C4CCCC4)[C@H](C)C(=O)N5C)n(-c4ccc(C)cc4)n3)nc2-c2ccc3c(c2)N(C2CCCC2)[C@H](C)C(=O)N3C)cc1 | 58.1
Cc1ccc(-n2nc(C(=O)N3CCN(C(=O)c4nc(-c5ccc6c(c5)N(C5CCCC5)[C@H](C)C(=O)N6C)n(-c5ccc(C)cc5)n4)[C@H](C)C3)nc2-c2ccc3c(c2)N(C2CCCC2)[C@H](C)C(=O)N3C)cc1 | 823

Proceeding to the next compound to report its Cmax.
Ask | Which Cmax value belongs to Cc1ccc(-n2nc(C(=O)N3CCN(C(=O)c4nc(-c5ccc6c(c5)N(C5CCCC5)[C@H](C)C(=O)N6C)n(-c5ccc(C)cc5)n4)CC3)nc2-c2ccc3c(c2)N(C2CCCC2)[C@H](C)C(=O)N3C)cc1 ?
Reply | 238

* * *

# pIC50 per entry
target: Bromodomain-containing protein 4 (Homo sapiens); experiment: Inhibition of full length BRD4 (unknown origin) transfected in HEK293 cells incubated for 20 hrs measured by NanoBRET BRD4/Histone H3.3 interaction assay kit
pIC50 here is simply -log10 of the concentration when that concentration is written in mol/L.

Cc1ccc(-n2nc(C(=O)N3CCN(C(=O)c4nc(-c5ccc6c(c5)N(C5CCCC5)[C@H](C)C(=O)N6C)n(-c5ccc(C)cc5)n4)CC3)nc2-c2ccc3c(c2)N(C2CCCC2)[C@H](C)C(=O)N3C)cc1 | 8.21
Cc1ccc(-n2nc(C(=O)N3CCNCC3)nc2-c2ccc3c(c2)N(C2CCCC2)[C@H](C)C(=O)N3C)cc1 | 7.28
Cc1ccc(-n2nc(C(=O)N3CCN(C(=O)c4nc(-c5ccc6c(c5)N(C5CCCC5)[C@@H](C)C(=O)N6C)n(-c5ccc(C)cc5)n4)CC3)nc2-c2ccc3c(c2)N(C2CCCC2)[C@H](C)C(=O)N3C)cc1 | 7.18

Proceeding to the next compound to report its pIC50.
Ask | Which pIC50 value belongs to Cc1ccc(-n2nc(C(=O)N3CCNCC3)nc2-c2ccc3c(c2)N(C2CCCC2)[C@@H](C)C(=O)N3C)cc1 ?
Reply | 5.76

* * *

assay: Metabolic stability in dog liver microsomes assessed as clearance; type: ADME, Canis lupus familiaris, Microsome; conditions: read-out: CLH
# microsomal CLint per entry
Express your answer in µL/min/mg, writing the number without its unit.

Example entries begin here.
Cc1ccc(-n2nc(C(=O)N3C[C@H](C)N(C(=O)c4nc(-c5ccc6c(c5)N(C)[C@H](C)C(=O)N6C)n(-c5ccc(C)cc5)n4)C[C@H]3C)nc2-c2ccc3c(c2)N(C)[C@H](C)C(=O)N3C)cc1 | 7.6
Cc1ccc(-n2nc(C(=O)N3C[C@H](C)N(C(=O)c4nc(-c5ccc6c(c5)N(C5CCC5)[C@H](C)C(=O)N6C)n(-c5ccc(C)cc5)n4)C[C@H]3C)nc2-c2ccc3c(c2)N(C2CCC2)[C@H](C)C(=O)N3C)cc1 | 0.7

Proceeding to the next compound to report its microsomal CLint.
Ask | Which microsomal CLint value belongs to C[C@@H]1CN(C(=O)c2nc(-c3ccc4c(c3)N(C3CCC3)[C@H](C)C(=O)N4C)n(-c3cccc(Cl)c3)n2)[C@@H](C)CN1C(=O)c1nc(-c2ccc3c(c2)N(C2CCC2)[C@H](C)C(=O)N3C)n(-c2cccc(Cl)c2)n1 ?
Reply | 1.6

* * *

test: Metabolic stability in human liver microsomes assessed as clearance; assay type: ADME, Microsome; settings: read-out: CLH
# microsomal CLint per entry
Express your answer in µL/min/mg, writing the number without its unit.

Example entries begin here.
C[C@@H]1CN(C(=O)c2nc(-c3ccc4c(c3)N(C3CCC3)[C@H](C)C(=O)N4C)n(-c3cccc(Cl)c3)n2)[C@@H](C)CN1C(=O)c1nc(-c2ccc3c(c2)N(C2CCC2)[C@H](C)C(=O)N3C)n(-c2cccc(Cl)c2)n1 | 6
Cc1ccc(-n2nc(C(=O)N3C[C@H](C)N(C(=O)c4nc(-c5ccc6c(c5)N(C5CCC5)[C@H](C)C(=O)N6C)n(-c5ccc(C)cc5)n4)C[C@H]3C)nc2-c2ccc3c(c2)N(C2CCC2)[C@H](C)C(=O)N3C)cc1 | 0.5

Ask | Which microsomal CLint value belongs to Cc1ccc(-n2nc(C(=O)N3C[C@H](C)N(C(=O)c4nc(-c5ccc6c(c5)N(C)[C@H](C)C(=O)N6C)n(-c5ccc(C)cc5)n4)C[C@H]3C)nc2-c2ccc3c(c2)N(C)[C@H](C)C(=O)N3C)cc1 ?
Reply | 6.4

* * *

experiment: AUClast in CD-1 mouse at 10 mg/kg, po; type: ADME, organism-based; design: dose 10 mg/kg, route po; details: in vivo
# log10(AUC(0-t)) per entry
Plainly stated, the numbers are log10 of AUC(0-t) given in ng·h/mL.

Example entries begin here.
Cc1ccc(-n2nc(C(=O)N(C)CCN(C)C(=O)c3nc(-c4ccc5c(c4)N(C4CCCC4)[C@H](C)C(=O)N5C)n(-c4ccc(C)cc4)n3)nc2-c2ccc3c(c2)N(C2CCCC2)[C@H](C)C(=O)N3C)cc1 | 2.09
Cc1ccc(-n2nc(C(=O)N3C[C@H](C)N(C(=O)c4nc(-c5ccc6c(c5)N(C5CCCC5)[C@H](C)C(=O)N6C)n(-c5ccc(C)cc5)n4)C[C@H]3C)nc2-c2ccc3c(c2)N(C2CCCC2)[C@H](C)C(=O)N3C)cc1 | 3.66
Cc1ccc(-n2nc(C(=O)N3CCN(C(=O)c4nc(-c5ccc6c(c5)N(C5CCCC5)[C@H](C)C(=O)N6C)n(-c5ccc(C)cc5)n4)CC3)nc2-c2ccc3c(c2)N(C2CCCC2)[C@H](C)C(=O)N3C)cc1 | 2.56
Cc1ccc(-n2nc(C(=O)N3CCN(C(=O)c4nc(-c5ccc6c(c5)N(C5CCCC5)[C@H](C)C(=O)N6C)n(-c5ccc(C)cc5)n4)[C@H](C)C3)nc2-c2ccc3c(c2)N(C2CCCC2)[C@H](C)C(=O)N3C)cc1 | 3.62
Cc1ccc(-n2nc(C(=O)N3CCCN(C(=O)c4nc(-c5ccc6c(c5)N(C5CCCC5)[C@H](C)C(=O)N6C)n(-c5ccc(C)cc5)n4)CC3)nc2-c2ccc3c(c2)N(C2CCCC2)[C@H](C)C(=O)N3C)cc1 | 2.57

Ask | Which log10(AUC(0-t)) value belongs to Cc1ccc(-n2nc(C(=O)N[C@@H]3CCCC[C@H]3NC(=O)c3nc(-c4ccc5c(c4)N(C4CCCC4)[C@H](C)C(=O)N5C)n(-c4ccc(C)cc4)n3)nc2-c2ccc3c(c2)N(C2CCCC2)[C@H](C)C(=O)N3C)cc1 ?
Reply | 2.31

Ask | Now consider Cc1ccc(-n2nc(C(=O)NCCCNC(=O)c3nc(-c4ccc5c(c4)N(C4CCCC4)[C@H](C)C(=O)N5C)n(-c4ccc(C)cc4)n3)nc2-c2ccc3c(c2)N(C2CCCC2)[C@H](C)C(=O)N3C)cc1 .
Reply | 1.85
